Biological target: T1, human ASGR-1 (wild type) (human, UniProt P07306 1-291)
T1 construct: also called wt ASGR1; huASGR-1
T1 sequence: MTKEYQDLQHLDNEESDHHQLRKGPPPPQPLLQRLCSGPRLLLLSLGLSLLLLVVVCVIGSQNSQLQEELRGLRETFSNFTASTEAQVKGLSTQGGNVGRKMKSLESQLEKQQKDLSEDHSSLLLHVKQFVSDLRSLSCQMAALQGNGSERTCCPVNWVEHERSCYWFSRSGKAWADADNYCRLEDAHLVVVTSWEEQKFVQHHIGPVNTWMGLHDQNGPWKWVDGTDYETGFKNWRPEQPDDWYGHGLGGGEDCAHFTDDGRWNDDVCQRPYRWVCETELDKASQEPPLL
Test: FACS ratio: 65C12 geomean / this mAb geomean
assay.readout: Expression Normalization to mAb 65C12
Lab note: write the figure by itself, no unit.

Here's what some known entries look like.
60C12 (antibody, V domains shown, mAb) VH: QVQLVESGGGVVQPGRSLRLSCAASGFTFSSYGMHWVRQAPGKGLEWVAVIWYDGSNKYYVDSVKGRFTISRDNSKNTLYLQMNSLRAEDTAVYYCARRYSRSWTGGMDVWGQGTTVTVSS VL: DIVMTQTPLSLSVTPGQPASISCKSSQSLLHSEGKTYLYWYLQKPGQPPQFLIYEVSNRFSGVPDRFSGSGSGTDFTLKISRVEAEDVGIYYCMQSIKYPLTFGGGTKVEIK	1.79
194A4 (antibody, V domains shown, mAb) VH: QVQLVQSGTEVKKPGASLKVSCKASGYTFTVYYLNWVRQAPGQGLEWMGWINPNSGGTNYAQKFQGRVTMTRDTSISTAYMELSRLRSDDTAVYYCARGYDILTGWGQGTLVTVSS VL: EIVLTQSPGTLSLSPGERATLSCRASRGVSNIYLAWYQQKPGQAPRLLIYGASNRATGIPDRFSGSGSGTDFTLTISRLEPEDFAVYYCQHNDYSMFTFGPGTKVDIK	3.44

Continue with the next binder.
Inquiry: Would you mind telling me what Expression Normalization to mAb 65C12 value was observed for 65D5 (antibody, V domains shown, mAb) VH: QVQLVQSGAEVKKPGASVKVSCKASGYTFPSYGISWVRQAPGQGLEWMGWISAYSGNTNYAQKLQGRVTMTTDTSTSTAYMELRSLRSDDTAVYFCARGEAVAVFDPWGQGTLVTVSS VL: DIQMTQSPSSLSASVGDRVTITCRASQDINNYLAWFQQKPGKAPRSLIYAASSLHSGVPSQFSASGSGSDFTLTISSLQPEDFATYYCPLYKSYPLTFGPGTKVDIK ?
Reply text: 1.37
